Field: ED50. Provide a value for each of the compounds that follow.
test system: amphetamine-induced stereotype behavior in rats; assay: Amphetamine potentiation (amphetamine-induced stereotype behavior in rats); type: in vivo; conditions: Rattus norvegicus, ip, compound intraperitoneally, 2 mg/kg of DL-amphetamine sulphate intravenous, read-out: ED50 (dose at which the amphetamine-induced behavior is intensified by 50%)
Numbers only, in mg/kg.

compound="CN1Cc2c(ccc3cc[nH]c23)C(c2ccccc2)C1 (stereo not shown) [2 a]" study_target="amphetamine-induced stereotype behavior in rats" unit_abbreviation=mg/kg readout_number=2.4

Kindly give each listed record's ED50.
1. CN1Cc2c(ccc3cc[nH]c23)C(c2ccc(F)cc2)C1 (stereo not shown) [2 b]
2. CN1Cc2c(ccc3c2NCC3)C(c2ccccc2)C1 (stereo not shown) [3 a]
3. CN1Cc2c(ccc3c2NCC3)C(c2ccc(F)cc2)C1 (stereo not shown) [3 b]

3.9
1.2
2.2
